Numbers sourced from paper PMC13397619.

B1: NLV2 TCR alpha chain (CDR3α only) (parent)
chain: AGPMKTSYDKVI
partner: NLVGMVATV

# Variants of: B1
# EXPERIMENT_NOTES: T-Switch: Jurkat TCRβ−/− cells expressing a CDR3 saturation-mutagenesis library, stained with two peptide-HLA-A*02:01 tetramers (original and novel peptide) plus anti-CD3, FACS-sorted into four gates, gDNA sequenced
# RECORDED_CONDITIONS: with HLA-A*02:01 with peptide … (NLV 2-2, the original bait), tetramers 1 µg/mL, 30 min on ice, DP and SW gates expanded about 10 days between rounds ('two to three rounds of selection' in the Methods), gate SP: higher = more of the variant in the gate that binds the original peptide and not the novel one = retained original binding. Fold enrichment of the CDR3 variant in one FACS gate of a two-tetra, unresolved parent, parent is a CDR3 fragment, scale: fold enrichment, numbering: sequential-on-construct, sequence …
Can you tell me enrichment for the items I'm about to list?
Numbers only.

Examples with their reported enrichment follow.
[…] (CDR3 as printed); V11R derived by comparing it with the table's wild-type CDR3 AGPMKTSYDKVI; 0
[…] (CDR3 as printed); K5F derived by comparing it with the table's wild-type CDR3 AGPMKTSYDKVI; 0
[…] (CDR3 as printed); D9F derived by comparing it with the table's wild-type CDR3 AGPMKTSYDKVI; 0
[…] (CDR3 as printed); D9N derived by comparing it with the table's wild-type CDR3 AGPMKTSYDKVI; 0
[…] (CDR3 as printed); G2R derived by comparing it with the table's wild-type CDR3 AGPMKTSYDKVI; 0
[…] (CDR3 as printed); V11A derived by comparing it with the table's wild-type CDR3 AGPMKTSYDKVI; 1.13
[…] (CDR3 as printed); P3M derived by comparing it with the table's wild-type CDR3 AGPMKTSYDKVI; 0
[…] (CDR3 as printed); A1V derived by comparing it with the table's wild-type CDR3 AGPMKTSYDKVI; 0

Your task in this section: give enrichment for each listed record.
1. […] (CDR3 as printed); K5L derived by comparing it with the table's wild-type CDR3 AGPMKTSYDKVI
2. […] (CDR3 as printed); S7E derived by comparing it with the table's wild-type CDR3 AGPMKTSYDKVI
3. […] (CDR3 as printed); I12A derived by comparing it with the table's wild-type CDR3 AGPMKTSYDKVI
4. […] (CDR3 as printed); M4G derived by comparing it with the table's wild-type CDR3 AGPMKTSYDKVI
5. […] (CDR3 as printed); V11F derived by comparing it with the table's wild-type CDR3 AGPMKTSYDKVI
6. […] (CDR3 as printed); K5R derived by comparing it with the table's wild-type CDR3 AGPMKTSYDKVI
7. […] (CDR3 as printed); M4Q derived by comparing it with the table's wild-type CDR3 AGPMKTSYDKVI
8. […] (CDR3 as printed); K5Q derived by comparing it with the table's wild-type CDR3 AGPMKTSYDKVI

0
0
2.32
0
0
0
5.77
7.86
